Tested on: P. aeruginosa 8780
Assay: In vitro antibacterial activity (MIC)
Format: cell-based
Details: Pseudomonas aeruginosa; P. aeruginosa 8780; read-out: MIC
Experimental: Drug dilutions are prepared in Mueller-Hinton broth ranging from 128 to 0.008 μg/ml. The diluted agents are dispensed in 100 μl amounts into the wells of a 96-well tray and used immediately or frozen at -10° to -70° C. until needed. Using an automated inoculator, 1.5 μl of a 10^-2 dilution of an overnight culture is added to each well of the tray. The tops of the trays are then sealed using transparent tape and incubated overnight at 37° C. The trays are examined with the aid of a viewer. […]
Structures can show the parent of a compound that is named as a salt.
Items are presented alongside their recorded MIC.
Value Kind: MIC

> print(dat)
                                    molecule  value.kind  test.result
 1  CC1(C)S[C@@H]2[C@H](N=CN3CCC(Cn4ccnc4N)CC3)C(=O)N2[C@H]1C(=O)O [H, hydrochloride]         MIC  > 128 µg/mL
 2  CC1(C)S[C@@H]2[C@H](N=CN3CCC(CCCn4ccnc4N)CC3)C(=O)N2[C@H]1C(=O)O [I, hydrochloride]         MIC  > 128 µg/mL
 3  CC1(C)S[C@@H]2[C@H](N=CN3CCC(CCCn4ccnc4[N+](=O)[O-])CC3)C(=O)N2[C@H]1C(=O)O [K, hydrate]         MIC  > 128 µg/mL
 4  Cc1nc(C)n(CCCC2CCN(C=N[C@@H]3C(=O)N4[C@@H]3SC(C)(C)[C@@H]4C(=O)O)CC2)c1C [E, hydrate hydrochloride]         MIC  > 128 µg/mL
 5  Cc1nccn1CCCC1CCN(C=N[C@@H]2C(=O)N3[C@@H]2SC(C)(C)[C@@H]3C(=O)O)CC1 [F, hydrate]         MIC   > 12 µg/mL
 6  CC1(C)S[C@@H]2[C@H](N=CN3CCC(Cn4ccnc4CN)CC3)C(=O)N2[C@H]1C(=O)O [J, hydrochloride]         MIC  > 128 µg/mL
 7  CC1(C)S[C@@H]2[C@H](N=CN3CCC(C4=NCCN4)CC3)C(=O)N2[C@H]1C(=O)O [L, hydrochloride]         MIC  > 128 µg/mL
 8  CC1(C)S[C@@H]2[C@H](N=CN3CCC(Cn4ccnc4)CC3)C(=O)N2[C@H]1C(=O)O         MIC  > 128 µg/mL
 9  CC1(C)S[C@@H]2[C@H](N=CN3CCC(c4ncc[nH]4)CC3)C(=O)N2[C@H]1C(=O)O [O, hydrochloride trihydrate]         MIC  > 128 µg/mL
10  CC1(C)S[C@@H]2[C@H](N=CN3CCC(CCC4=NCCN4)CC3)C(=O)N2[C@H]1C(=O)O [N, hydrochloride]         MIC    128 µg/mL
11  CC1(C)S[C@@H]2[C@H](N=CN3CCC(CCn4ccnc4)CC3)C(=O)N2[C@H]1C(=O)O [B, hydrate hydrochloride]         MIC  > 128 µg/mL
12  CC1(C)S[C@@H]2[C@H](N=CN3CCC(CC4=NCCN4)CC3)C(=O)N2[C@H]1C(=O)O [M, hydrochloride]         MIC    128 µg/mL
13  CC1(C)S[C@@H]2[C@H](N=CN3CCC(CCCn4ccnc4)CC3)C(=O)N2[C@H]1C(=O)O [C, hydrochloride monohydrate]         MIC  > 128 µg/mL
14  CCc1nc(C)cn1CCCC1CCN(C=N[C@@H]2C(=O)N3[C@@H]2SC(C)(C)[C@@H]3C(=O)O)CC1 [G, hydrochloride]         MIC  > 128 µg/mL

* * *

system: P. mirabilis 2; assay: In vitro antibacterial activity (MIC); type: cell-based; settings: Proteus mirabilis, 2, P. mirabilis 2; read-out: MIC
Where a name gives a salt, the structure may show the parent alone.
Value Kind: log10(MIC) (log10 of the value in µg/mL)

> print(dat)
                                   compound  test.result
1  CC1(C)S[C@@H]2[C@H](N=CN3CCC(Cc4ncc[nH]4)CC3)C(=O)N2[C@H]1C(=O)O [Q, hydrochloride]         0.90
2  CCc1nc(C)cn1CCCC1CCN(C=N[C@@H]2C(=O)N3[C@@H]2SC(C)(C)[C@@H]3C(=O)O)CC1 [G, hydrochloride]         0.00
3  CC1(C)S[C@@H]2[C@H](N=CN3CCC(CCCn4ccnc4N)CC3)C(=O)N2[C@H]1C(=O)O [I, hydrochloride]        -0.60
4  CC1(C)S[C@@H]2[C@H](N=CN3CCC(CCC4=NCCN4)CC3)C(=O)N2[C@H]1C(=O)O [N, hydrochloride]        -0.90
5  CN(C)C=Nc1nccn1CCCC1CCN(C=N[C@@H]2C(=O)N3[C@@H]2SC(C)(C)[C@@H]3C(=O)O)CC1 [S, hydrate]         0.30
6  CC1(C)S[C@@H]2[C@H](N=CN3CCC(Cn4ccnc4)CC3)C(=O)N2[C@H]1C(=O)O [Compound A]        -0.30
7  CC1(C)S[C@@H]2[C@H](N=CN3CCC(CCn4ccnc4)CC3)C(=O)N2[C@H]1C(=O)O [B, hydrate hydrochloride]         0.00

* * *

MIC: recorded values
system: P. mirabilis 2; experiment: In vitro antibacterial activity (MIC); format: cell-based; conditions: Proteus mirabilis, 2, P. mirabilis 2; read-out: MIC
Where a name gives a salt, the structure may show the parent alone.
Value Kind: MIC (µg/mL)

> print(dat)
                                   compound  test.result
1  CC1(C)S[C@@H]2[C@H](N=CN3CCC(CC4=NCCN4)CC3)C(=O)N2[C@H]1C(=O)O [M, hydrochloride]          0.5
2  CC1(C)S[C@@H]2[C@H](N=CN3CCC(Cn4ccnc4N)CC3)C(=O)N2[C@H]1C(=O)O [H, hydrochloride]         0.25
3  CC1(C)S[C@@H]2[C@H](N=CN3CCC(CCCn4ccnc4[N+](=O)[O-])CC3)C(=O)N2[C@H]1C(=O)O [K, hydrate]            4
4  CC1(C)S[C@@H]2[C@H](N=CN3CCC(Cn4ccnc4CN)CC3)C(=O)N2[C@H]1C(=O)O [J, hydrochloride]            8

* * *

system: S. schottmuelleri; assay: In vitro antibacterial activity (MIC); assay type: cell-based; settings: read-out: MIC
Structures can show the parent of a compound that is named as a salt.
Listed below: MIC values for each entry.
Value Kind: MIC (µg/mL)

> print(dat)
                                    compound  relation.operator  test.result
 1  CC1(C)S[C@@H]2[C@H](N=CN3CCC(Cn4ccnc4N)CC3)C(=O)N2[C@H]1C(=O)O [H, hydrochloride]                  =        0.062
 2  CN(C)C=Nc1nccn1CCCC1CCN(C=N[C@@H]2C(=O)N3[C@@H]2SC(C)(C)[C@@H]3C(=O)O)CC1 [S, hydrate]                  =         0.25
 3  CCc1nc(C)cn1CCCC1CCN(C=N[C@@H]2C(=O)N3[C@@H]2SC(C)(C)[C@@H]3C(=O)O)CC1 [G, hydrochloride]                  =        0.125
 4  Cc1nc(C)n(CCCC2CCN(C=N[C@@H]3C(=O)N4[C@@H]3SC(C)(C)[C@@H]4C(=O)O)CC2)c1C [E, hydrate hydrochloride]                  =        0.062
 5  CC1(C)S[C@@H]2[C@H](N=CN3CCC(CC4=NCCN4)CC3)C(=O)N2[C@H]1C(=O)O [M, hydrochloride]                  =        0.062
 6  CC1(C)S[C@@H]2[C@H](N=CN3CCC(C4=NCCN4)CC3)C(=O)N2[C@H]1C(=O)O [L, hydrochloride]                  =         0.25
 7  CC1(C)S[C@@H]2[C@H](N=CN3CCC(c4ncc[nH]4)CC3)C(=O)N2[C@H]1C(=O)O [O, hydrochloride trihydrate]                  =        0.125
 8  CC1(C)S[C@@H]2[C@H](N=CN3CCCC(c4ncc[nH]4)C3)C(=O)N2[C@H]1C(=O)O (stereo partly shown) [P, hydrochloride]                  =            2
 9  CC1(C)S[C@@H]2[C@H](N=CN3CCC(CCC4=NCCN4)CC3)C(=O)N2[C@H]1C(=O)O [N, hydrochloride]                  =        0.031
10  Cc1nccn1CCCC1CCN(C=N[C@@H]2C(=O)N3[C@@H]2SC(C)(C)[C@@H]3C(=O)O)CC1 [F, hydrate]                  =        0.062
11  CC1(C)S[C@@H]2[C@H](N=CN3CCC(CCCn4ccnc4N)CC3)C(=O)N2[C@H]1C(=O)O [I, hydrochloride]                  =        0.031
12  CC1(C)S[C@@H]2[C@H](N=CN3CCC(CCCn4ccnc4CO)CC3)C(=O)N2[C@H]1C(=O)O [R, hydrate]                  <        0.008
13  CC1(C)S[C@@H]2[C@H](N=CN3CCC(CCCn4ccnc4[N+](=O)[O-])CC3)C(=O)N2[C@H]1C(=O)O [K, hydrate]                  =          0.5
14  CC1(C)S[C@@H]2[C@H](N=CN3CCC(Cn4ccnc4)CC3)C(=O)N2[C@H]1C(=O)O [Compound A]                  =        0.125
15  CC1(C)S[C@@H]2[C@H](N=CN3CCC(CCn4ccnc4)CC3)C(=O)N2[C@H]1C(=O)O [B, hydrate hydrochloride]                  =         0.25
16  CC1(C)S[C@@H]2[C@H](N=CN3CCC(CCCn4ccnc4)CC3)C(=O)N2[C@H]1C(=O)O [C, hydrochloride monohydrate]                  =            4
